meta.source: patent US20150266963A1

Molecular target: T1, human CD70 expressed on the surface of cells (human, UniProt P32970 1-193)
T1 sequence (looked up): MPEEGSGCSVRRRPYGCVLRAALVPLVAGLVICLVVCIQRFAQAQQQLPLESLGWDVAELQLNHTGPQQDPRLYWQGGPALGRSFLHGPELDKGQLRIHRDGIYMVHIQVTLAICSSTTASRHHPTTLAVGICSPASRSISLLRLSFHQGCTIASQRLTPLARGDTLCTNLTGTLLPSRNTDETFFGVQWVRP
Experiment: cell-based or functional assay
measured.attribute: IC50 (ng/ml), IL-8 secretion in Raji / HT1080-CD27 co-culture assay (ng/mL)
Provide the reading as a plain figure in ng/mL.

[
  {
    "binder": "9G2 chimeric llama-human mAb (antibody, human IgG1, V domains shown) VH: QVQLVESGGGLMQPGGSLRLSCAASGFTFSSSAMSWVRQAPGKGLEWVSSIYSDSSYTYYADSVKSRFTISTDNAKNTLYLQMNSLKPDDTAVYYCAGSSDYEGSFASWGQGTQVTVSS VL: QSVVTQPPSLSASPGSSVRLTCTLSSGNSVGNYDISWYQQKAGSPPRYLLYYYSDSVKHQGSGVPSRFSGSSDASANAGLLLISGLQPEDEADYYCSAYKSGSHVFGGGTKLTVLG",
    "value.units": "ng/mL",
    "data.value": 3
  },
  {
    "binder": "5F4 chimeric llama-human mAb (antibody, human IgG1, V domains shown) VH: EVQVQESGGGLVHPGGSLKLSCAASGFTFDTYAMSWVRQAPGKGLEWVSAISWSGGETFYAESMKGRFTISRNNAKNTLYLQMNSLKSEDTAVYYCARGMGLAEGLTDWGQGTQVTVSS VL: QAVVTHPPSLSASPGSSVRLTCTLISGDNIGGYDISWYQQKTGSPPRYLLYYYSDSYKHQSSGVPSRFSGSKDASANAGLLLISGLQSEDEADYYCSAYKSGSYKAPVFGGGTHLTVLG",
    "value.units": "ng/mL",
    "data.value": 32
  },
  {
    "binder": "9B2 chimeric llama-human mAb (antibody, human IgG1, V domains shown) VH: QLQVVESGGGLMQPGGSLRLSCAASGFTFSGSAMSWVRQAPGKGLEWVSSIYSHSMYTYYADSVKSRFTISTDNAKNTLYLQMNSLKPDDTAVYYCAASSDYEGLFVSWGQGTQVTVSS VL: QAVLTQPPSLSASPGSSVRLTCTLNSANSVGSYDISWYQQKAGSPPRYLLYYYSDSLSHQGSGVPSRFSGSTDASANAGLLLISGLQPEDEADYYCSAYNRGSHVFGGGTKLTVLG",
    "value.units": "ng/mL",
    "data.value": 213
  },
  {
    "binder": "4D2 chimeric llama-human mAb (antibody, human IgG1, V domains shown) VH: QVQLQESGPGLVKPSQTLSLACTVSGGSITTSYYYWSWIRQPPGKGLEWMGAIGSRGSTYYSPSLKTRTSISRDTSKNQFTLQLSSVTPEDTAVYYCARVTGEITYNSGSYYYTLNLFDYWGQGTQVTVSS VL: QSVLTQPPSLSASPGSSVRLTCTLSSGNSVGNYDISWYQQKAGSPPRYLLYYYSDSYKNQGSGVPSRFSGSKDPSANAGLLLISGLQAEDEADYYCSVSNSGTYKPVFGGGSKLTVLG",
    "value.units": "ng/mL",
    "data.value": 54
  }
]

// next entry
Ask | Which IC50 (ng/ml), IL-8 secretion in Raji / HT1080-CD27 co-culture assay reading was recorded for the binder 9D1 chimeric llama-human mAb (antibody, human IgG1, V domains shown, also called mAb 9D1) VH: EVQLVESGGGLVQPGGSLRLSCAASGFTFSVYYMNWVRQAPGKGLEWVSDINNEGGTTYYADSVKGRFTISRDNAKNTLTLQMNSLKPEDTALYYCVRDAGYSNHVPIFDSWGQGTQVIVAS VL: QAVVTQEPSLSVSPGGTVTLTCGLSSGSVTSSHYPGWYQQTPGQAPRLLIFNTNSRHSGVPSRFSGSISGNKAALTITGAQPEDEADYYCALLNIDDGSTMFGGGTHLTVLG ?
Reply | 29
